Target: biotin-hPYY (human, N-terminal Biotin-Ahx-; C-terminal amide (-NH2))
Sequence (peptide, as listed by the source): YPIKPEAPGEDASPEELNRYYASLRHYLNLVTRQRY
Assay: BLI (ForteBio Blitz), biotinylated peptide on streptavidin sensor, scFv in solution
measured.parameter: Kd (nM)

binder | uom | endpoint.result
mouse 5E12-B7 scFv PSE2 (scFv, V domains shown, not shown: small tags and cut ends, also called 5E12 (mouse); mouse 5E12 PSE2) VH: QVQLQHPGTEVVKPGASVKLSCKASGYTFTNYWMHWVKQRPGQGLEWIGNIDPSNGGTNYNEKFKSKATLTVDKSSSTAYMQLSSLTSEDSAVYYCASFAYWGQGTLVTVSS VL: DIQMTQSPASLSASVGETVTITCRASGNIHNYLAWYQQKQGKSPQLLVYNAKTLADGVPSRFSGSGSGTQYSLKISSLRPEDFGSYYCQHFWSPPFTFGSGTKLEIK | nM | 32.9
scFv-6 (human) (scFv, Human scFv from the Garvan-2 phage library; Whole entry used as named) scFv: EVQLLESGGGLVQPGGSLRLSCAASGFRFSAEDMGWVRQAPGKGLEWVSSIASAGASTYYADSVKGRFTISRDNSKNTLYLQMNSLRAEDTAVYYCAKHMYSYAIFDYWGQGTLVTVSSGGGGSGGGGSGGGGSTDIQMTQSPSSLSASVGDRVTITCRASQDIADALNWYQQKPGKAPKLLIYAASSLQSGVPSKFSGSGSGTDFTLTISSLQPEDFATYYCQQGYVHPPTFGQGTKVEIKR | nM | 3240
h5E12 IGHV1-69/DPK9 scFv (humanized) (scFv, Humanized 5E12 scFv) scFv: QVQLVQSGAEVKKPGSSVKVSCKASGYTFTNYWMHWVRQAPGQGLEWMGNIDPSNGGTNYNEKFKSRVTITADESTSTAYMELSSLRSEDTAVYYCASFAYWGQGTLVTVSSGGGGSGGGGSGGGGSTDIQMTQSPSSLSASVGDRVTITCRASGNIHNYLAWYQQKPGKAPKLLIYNAKTLADGVPSRFSGSGSGTDFTLTISSLQPEDFATYYCQHFWSPPFTFGQGTKVEIKR | nM | 140
